# Test system: Panel renal (Carcinoma cell lines)
# assay.protocol: Inhibition of proliferation in NCI human renal tumor cell lines
# Type: functional
quantity.name: GI50 (nM)

| molecule | quantity.name | numeric.readout |
| --- | --- | --- |
| COc1ccc2c(c1)/C(=C\c1c(Cl)[nH]c3cc(C)c(OC)cc13)C(=O)N2 | GI50 | 2000 |
| COc1cc2c(/C=C3/C(=O)N(c4ccccc4)c4ccccc43)c(Cl)[nH]c2cc1C | GI50 | 3980 |
| COc1cc2c(cc1C)NC(=O)/C2=C/c1c(Cl)[nH]c2cc(C)c(OC)cc12 | GI50 | 2510 |
| COc1cc2c(/C=C3/C(=O)Nc4ccccc43)c(Cl)[nH]c2cc1C | GI50 | 200 |
| CC[C@]1(O)C[C@H]2CN(CCc3c([nH]c4ccccc34)[C@@](C(=O)OC)(c3cc4c(cc3OC)N(C=O)[C@H]3[C@@](O)(C(=O)OC)[C@H](OC(C)=O)[C@]5(CC)C=CCN6CC[C@]43[C@@H]65)C2)C1.O=S(=O)(O)O [VINCRISTINE SULFATE] | GI50 | 316 |
| COc1cc2c(/C=C3/C(=O)N(C)c4ccccc43)c(Cl)[nH]c2cc1C | GI50 | 2000 |

###

# Test system: Panel melanoma (Carcinoma cell lines)
# assay.protocol: Cytotoxic effect on human melanoma tumor cell lines
# Type: functional
Rule: measured LC50 below -4 gets criterion met; anything equal to or greater than -4 gets criterion not met.

| molecule | category.label |
| --- | --- |
| CC[C@]1(O)C[C@H]2CN(CCc3c([nH]c4ccccc34)[C@@](C(=O)OC)(c3cc4c(cc3OC)N(C=O)[C@H]3[C@@](O)(C(=O)OC)[C@H](OC(C)=O)[C@]5(CC)C=CCN6CC[C@]43[C@@H]65)C2)C1.O=S(=O)(O)O [VINCRISTINE SULFATE] | criterion not met |
| COc1ccc2c(c1)/C(=C\c1c(Cl)[nH]c3cc(C)c(OC)cc13)C(=O)N2 | criterion met |
| COc1cc2c(/C=C3/C(=O)N(c4ccccc4)c4ccccc43)c(Cl)[nH]c2cc1C | criterion met |
| COc1cc2c(cc1C)NC(=O)/C2=C/c1c(Cl)[nH]c2cc(C)c(OC)cc12 | criterion met |
| COc1cc2c(/C=C3/C(=O)Nc4ccccc43)c(Cl)[nH]c2cc1C | criterion met |

###

# Test system: NSCLC
# assay.protocol: Cytostatic effect on human non-small cell lung carcinoma tumor cell lines
# Type: functional
Reported logTGI values follow for various compounds
quantity.name: logTGI (log M)

| smiles.structure | target.entity | unit.descriptor | numeric.readout |
| --- | --- | --- | --- |
| COc1cc2c(cc1C)NC(=O)/C2=C/c1c(Cl)[nH]c2cc(C)c(OC)cc12 | NSCLC | log M | -4.8 |
| COc1cc2c(/C=C3/C(=O)Nc4ccccc43)c(Cl)[nH]c2cc1C | NSCLC | log M | -4.7 |
| COc1cc2c(/C=C3/C(=O)N(c4ccccc4)c4ccccc43)c(Cl)[nH]c2cc1C | NSCLC | log M | -4.5 |

###

# assay.protocol: Cytostatic effect on 60 human tumor cell line panel, MG-MID represents mean value
# Assay type: functional
Reported logTGI values follow for various molecules

| smiles.structure | unit.descriptor | logTGI |
| --- | --- | --- |
| COc1cc2c(/C=C3/C(=O)Nc4ccccc43)c(Cl)[nH]c2cc1C | log M | -5 |
| COc1ccc2c(c1)/C(=C\c1c(Cl)[nH]c3cc(C)c(OC)cc13)C(=O)N2 | log M | -5 |
| COc1cc2c(/C=C3/C(=O)N(C)c4ccccc43)c(Cl)[nH]c2cc1C | log M | -4.9 |
| COc1cc2c(/C=C3/C(=O)N(c4ccccc4)c4ccccc43)c(Cl)[nH]c2cc1C | log M | -4.7 |
| COc1cc2c(cc1C)NC(=O)/C2=C/c1c(Cl)[nH]c2cc(C)c(OC)cc12 | log M | -4.8 |

###

# System: Panel prostate (Carcinoma cell lines)
# assay.protocol: Cytotoxic effect on human prostate tumor cell lines
# Type: functional

| compound | target.entity | LC50 |
| --- | --- | --- |
| COc1cc2c(/C=C3/C(=O)N(c4ccccc4)c4ccccc43)c(Cl)[nH]c2cc1C | Panel prostate (Carcinoma cell lines) | -4 |
| CC[C@]1(O)C[C@H]2CN(CCc3c([nH]c4ccccc34)[C@@](C(=O)OC)(c3cc4c(cc3OC)N(C=O)[C@H]3[C@@](O)(C(=O)OC)[C@H](OC(C)=O)[C@]5(CC)C=CCN6CC[C@]43[C@@H]65)C2)C1.O=S(=O)(O)O [VINCRISTINE SULFATE] | Panel prostate (Carcinoma cell lines) | -3.5 |
| COc1cc2c(/C=C3/C(=O)Nc4ccccc43)c(Cl)[nH]c2cc1C | Panel prostate (Carcinoma cell lines) | -4.4 |

###

Reported LC50 values follow for various compounds
# System: Panel prostate (Carcinoma cell lines)
# assay.protocol: Cytotoxic effect on human prostate tumor cell lines
# Assay type: functional

| smiles.structure | target.entity | LC50 |
| --- | --- | --- |
| COc1ccc2c(c1)/C(=C\c1c(Cl)[nH]c3cc(C)c(OC)cc13)C(=O)N2 | Panel prostate (Carcinoma cell lines) | -4.4 |
| COc1cc2c(cc1C)NC(=O)/C2=C/c1c(Cl)[nH]c2cc(C)c(OC)cc12 | Panel prostate (Carcinoma cell lines) | -4.4 |
| COc1cc2c(/C=C3/C(=O)N(C)c4ccccc43)c(Cl)[nH]c2cc1C | Panel prostate (Carcinoma cell lines) | -4 |

###

# Tested on: Panel prostate (Carcinoma cell lines)
# assay.protocol: Inhibition of proliferation in NCI human prostate tumor cell lines
# Type: functional
quantity.name: GI50 (µM)

| molecule | unit.descriptor | numeric.readout |
| --- | --- | --- |
| COc1cc2c(/C=C3/C(=O)Nc4ccccc43)c(Cl)[nH]c2cc1C | µM | 0.126 |
| COc1ccc2c(c1)/C(=C\c1c(Cl)[nH]c3cc(C)c(OC)cc13)C(=O)N2 | µM | 1.26 |
| COc1cc2c(cc1C)NC(=O)/C2=C/c1c(Cl)[nH]c2cc(C)c(OC)cc12 | µM | 1.26 |
| CC[C@]1(O)C[C@H]2CN(CCc3c([nH]c4ccccc34)[C@@](C(=O)OC)(c3cc4c(cc3OC)N(C=O)[C@H]3[C@@](O)(C(=O)OC)[C@H](OC(C)=O)[C@]5(CC)C=CCN6CC[C@]43[C@@H]65)C2)C1.O=S(=O)(O)O [VINCRISTINE SULFATE] | µM | 0.126 |
| COc1cc2c(/C=C3/C(=O)N(c4ccccc4)c4ccccc43)c(Cl)[nH]c2cc1C | µM | 3.16 |
| COc1cc2c(/C=C3/C(=O)N(C)c4ccccc43)c(Cl)[nH]c2cc1C | µM | 0.398 |

###

# Tested on: Panel CNS (Carcinoma cell lines)
# assay.protocol: Cytostatic effect on human CNS tumor cell lines
# Assay type: functional
quantity.name: logTGI (log M)

| smiles.structure | numeric.readout |
| --- | --- |
| COc1cc2c(/C=C3/C(=O)Nc4ccccc43)c(Cl)[nH]c2cc1C | -5.6 |
| COc1cc2c(/C=C3/C(=O)N(C)c4ccccc43)c(Cl)[nH]c2cc1C | -5.6 |
| COc1cc2c(cc1C)NC(=O)/C2=C/c1c(Cl)[nH]c2cc(C)c(OC)cc12 | -5.3 |
| COc1cc2c(/C=C3/C(=O)N(c4ccccc4)c4ccccc43)c(Cl)[nH]c2cc1C | -4.7 |
| COc1ccc2c(c1)/C(=C\c1c(Cl)[nH]c3cc(C)c(OC)cc13)C(=O)N2 | -5.2 |

###

# System: Panel renal (Carcinoma cell lines)
# assay.protocol: Cytotoxic effect on human renal tumor cell lines
# Type: functional
quantity.name: LC50

| compound | quantity.name | numeric.readout |
| --- | --- | --- |
| COc1cc2c(/C=C3/C(=O)N(c4ccccc4)c4ccccc43)c(Cl)[nH]c2cc1C | LC50 | -4.1 |
| COc1cc2c(/C=C3/C(=O)N(C)c4ccccc43)c(Cl)[nH]c2cc1C | LC50 | -4 |
| COc1cc2c(/C=C3/C(=O)Nc4ccccc43)c(Cl)[nH]c2cc1C | LC50 | -4.3 |
| COc1cc2c(cc1C)NC(=O)/C2=C/c1c(Cl)[nH]c2cc(C)c(OC)cc12 | LC50 | -4.3 |
| COc1ccc2c(c1)/C(=C\c1c(Cl)[nH]c3cc(C)c(OC)cc13)C(=O)N2 | LC50 | -4.3 |
| CC[C@]1(O)C[C@H]2CN(CCc3c([nH]c4ccccc34)[C@@](C(=O)OC)(c3cc4c(cc3OC)N(C=O)[C@H]3[C@@](O)(C(=O)OC)[C@H](OC(C)=O)[C@]5(CC)C=CCN6CC[C@]43[C@@H]65)C2)C1.O=S(=O)(O)O [VINCRISTINE SULFATE] | LC50 | -3.6 |
